- Tested on: Human immunodeficiency virus 1
- experiment.summary: Antiviral activity against HIV1 3B with reverse transcriptase Tyr181His mutation
- Assay type: functional, organism-based
- condition.context: Human immunodeficiency virus 1, 3B
reported.property: EC50

(Q) What does the record list as EC50 for `Cc1cc(C)nc(N2C(=O)CS[C@@H]2C23CC4CC(CC(C4)C2)C3)c1` ?
(A) > 12 µM

This collection of values is drawn from ChEMBL document CHEMBL1147853.
